- target.under.test: MAL^TIR (Homo sapiens, UniProt P58753)
- Construct: MAL (residues 79–221); 6xHis; made in house; host or cells: E. coli BL21 (DE3)
- Sequence (P58753 79-221): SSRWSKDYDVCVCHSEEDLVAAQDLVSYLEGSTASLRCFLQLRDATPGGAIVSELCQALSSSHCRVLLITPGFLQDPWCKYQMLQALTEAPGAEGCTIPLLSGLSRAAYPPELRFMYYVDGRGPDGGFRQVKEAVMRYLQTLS
- measurement.protocol: T‐Surf phage library (P8 and P3) selection against MAL^TIR, four rounds, NGS read counts
- Format: binding
- test.context: P3_MAL: rank by count after grouping
measured.endpoint: Rank (after)
Give only the figure.

Give Rank (after); test system MAL^TIR (Homo sapiens, UniProt P58753); sequence `LKVESWRRAPEKAGKL`
457

Give Rank (after); test system MAL^TIR (Homo sapiens, UniProt P58753); sequence `YTALTNSASHTFRGND`
444

Give Rank (after); test system MAL^TIR (Homo sapiens, UniProt P58753); sequence `KCFWVTLLYALHRNPR`
465

Give Rank (after); test system MAL^TIR (Homo sapiens, UniProt P58753); sequence `ERLFSEPLNVNKDLLG`
434

Give Rank (after); test system MAL^TIR (Homo sapiens, UniProt P58753); sequence `SFFWNKLRYALTYRPAT`
437

Give Rank (after); test system MAL^TIR (Homo sapiens, UniProt P58753); sequence `MRLPAICNVIWCSVA`
388

Give Rank (after); test system MAL^TIR (Homo sapiens, UniProt P58753); sequence `SKDYAQSAWALEELTK`
99

Give Rank (after); test system MAL^TIR (Homo sapiens, UniProt P58753); sequence `NQWRNALTKVANLV`
107

Give Rank (after); test system MAL^TIR (Homo sapiens, UniProt P58753); sequence `DWFLSKLSQHILKKG`
393
